Value source: patent US9549917B2

# maps each entry to its IC50
System: HCV replicon genotype 1a
Test: HCV replicon assay, genotype 1a (cell ELISA for NS3/4A)
Type: cell-based
Conditions: Hepatitis C virus, 96 h, read-out: 1a IC50 (nM)
Protocol: Measurement of inhibition by compounds was performed using the HCV replicon system. Several different replicons encoding different HCV genotypes or mutations were used. […] Stable neomycin phosphotransferase encoding replicons-harboring cell lines were used, so all cell lines were maintained under G418 selection prior to the assay. Potency was determined using a cell ELISA assay with an antibody to the replicons encoded NS3/4a protease. […]
readout_kind: IC50 (nM)

[[record]]
compound = "CNC(=O)c1c(-c2ccc(F)cc2)oc2cc(N(C)S(C)(=O)=O)c(-c3ccnc(-c4nc5c(F)cccc5o4)c3)cc12 [Compound 9]"
measurement = 0.6

[[record]]
compound = "CNC(=O)c1c(-c2ccc(F)cc2)oc2cc(N(C)S(C)(=O)=O)c(-c3cncc(-c4nc5ccccc5s4)c3)cc12 [Compound 62]"
measurement = 2

[[record]]
compound = "CNC(=O)c1c(-c2ccc(F)cc2)oc2cc(N(C)S(C)(=O)=O)c(-c3cnnc(N4Cc5c(F)cccc5C4=O)c3)cc12 [Compound 281]"
measurement = 22.3

